Every entry's value here was drawn from patent US20220372013A2.

system: mice; experiment: Biological Example 5: acute toxicity experiment of single oral administration in mice; format: in vivo; conditions: Male mice; Day 1; single oral 1000 mg/Kg; Mean ± SD

MOLECULE	TARGET UNDER TEST	Daily Body Weight
COCCN1C(=O)CCC(N2C(=O)c3cccc(NC(C)=O)c3C2=O)C1=O (centres unmarked) [Example 1]	mice	20.1 ± 1.4 g
COCCN1C(=O)CCC(N2C(=O)c3c(N)ccc(O)c3C2=O)C1=O (centres unmarked) [Example 10]	mice	19.4 ± 0.3 g
COCCN1C(=O)CCC(N2C(=O)c3cccc(O)c3C2=O)C1=O (centres unmarked) [Example 23]	mice	19.4 ± 0.8 g
CCOCCN1C(=O)CCC(N2C(=O)c3cccc(N)c3C2=O)C1=O (centres unmarked) [Example 19]	mice	18.9 ± 1.2 g
CCOCCN1C(=O)CCC(N2C(=O)c3cccc(F)c3C2=O)C1=O (centres unmarked) [Example 20]	mice	18.8 ± 1.0 g
CS(=O)(=O)CCN1C(=O)CCC(N2C(=O)c3cccc(N)c3C2=O)C1=O (centres unmarked) [Example 13]	mice	19.6 ± 0.7 g
CSCCN1C(=O)CCC(N2C(=O)c3cccc(N)c3C2=O)C1=O (centres unmarked) [Example 11]	mice	19.5 ± 0.6 g
COCCCN1C(=O)CCC(N2C(=O)c3ccc(N)cc3C2=O)C1=O (centres unmarked) [Example 18]	mice	18.2 ± 0.4 g
